Assay: Inhibition of MurF (Unknown origin) at 100 uM relative to control
endpoint: inhibition (%)
Give the value, in units of %, as a plain number.

### Prompt What value of inhibition has been reported for the following compound? "Cc1cc(-c2ccco2)cc(C)c1/C=C/c1cncc(C2=NCCS2)c1"
### Response 58

### Prompt Give its inhibition value. Item: "Cc1cc(-c2ccco2)cc(C)c1/C=C/c1cncc(-c2nn[nH]n2)c1"
### Response 74

### Prompt Fill in: inhibition of "Cc1cc(-c2ccco2)cc(C)c1/C=C/c1cncc(C#N)c1" is ___
### Response 21

### Prompt I am curious: what inhibition value has been reported for "Cc1cc(-c2ccoc2)cc(C)c1/C=C/c1cncc(-c2nnn[nH]2)c1" ?
### Response 12

### Prompt Reported inhibition for "COC(=O)c1cccc(-c2cc(C)c(/C=C/c3cncc(-c4nnn[nH]4)c3)c(C)c2)c1" : what is it?
### Response 16

### Prompt What inhibition value was documented for this compound, "Cc1cc(-c2ccco2)cc(C)c1/C=C/c1cncc(C(N)=O)c1" ?
### Response 76

### Prompt Using the record for "Cc1cc(-c2cccc(CO)c2)cc(C)c1/C=C/c1cncc(-c2nnn[nH]2)c1" , report its inhibition.
### Response 24

### Prompt // returns reported inhibition for input "Cc1cc(Br)cc(C)c1/C=C/c1cncc(-c2nnn[nH]2)c1"
### Response 32

### Prompt Form field: reported inhibition of "Cc1cc(-c2ccncc2)cc(C)c1/C=C/c1cncc(-c2nnn[nH]2)c1"
### Response 15

### Prompt Data request, read-out inhibition, for "Cc1cc(-c2ccco2)cc(C)c1/C=C/c1cncc(C2=NCCO2)c1"
### Response 44

### Prompt Recorded inhibition for "COc1cccc(-c2cc(C)c(/C=C/c3cncc(-c4nnn[nH]4)c3)c(C)c2)c1" , please?
### Response 18

### Prompt Fill in: inhibition of "Cc1cc(-c2ccco2)cc(C)c1/C=C/c1cccc(-c2nnn[nH]2)c1" is ___
### Response 21

The reported measurements were obtained from ChEMBL document CHEMBL4813999.
